// data source = patent US20240166660A1

system.under.test: KRAS (aa 1-169) G12C, C51S, C80L, C118S (Homo sapiens (Human), UniProt P01116, C118S/C51S/C80L/G12C)
Sequence (P01116 other isoform, or with tags, fused parts or gaps G12C/C51S/C80L/C118S): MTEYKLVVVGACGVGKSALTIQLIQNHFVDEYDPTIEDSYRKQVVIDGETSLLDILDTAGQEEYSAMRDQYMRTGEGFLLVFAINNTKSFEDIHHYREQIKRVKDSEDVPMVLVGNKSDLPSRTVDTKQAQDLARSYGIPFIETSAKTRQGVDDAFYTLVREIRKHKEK
experiment.description: Biochemical functional assay: SOS1-mediated nucleotide exchange of GDP-loaded KRAS G12C, binding to GST-cRaf RBD, FRET readout
measurement.setup: 3 hrs pre-incubation with compound at 24° C., SOS1, GTPyS, inhibition of nucleotide exchange
readout.name: IC50 (nM)
Reply with just the number (in nM).

These solved cases illustrate the format of a correct answer.
C=CC(=O)N1CCN(c2nc(OC[C@@H]3CCCN3C)nc3cc(-c4c(C)cccc4Cl)c4ccoc4c23)CC1    279
C=C(F)C(=O)N1CCN(c2nc(N3CC(CC#N)(N(C)C)C3)nc3cc(-c4cccc5cccc(Cl)c45)c4ccoc4c23)C[C@@H]1CC#N    222
C=C(F)C(=O)N1CCN(c2nc(OC[C@@H]3CCCN3C)nc3cc(-c4cccc(C(F)(F)F)c4)c4ccoc4c23)C[C@@H]1CC#N    1520
C=CC(=O)N1CCN(c2ncnc3cc(-c4c(C)ccc5[nH]ncc45)c4c(c23)OCC=C4)C[C@@H]1CC#N    218
C=CC(=O)N1CCN(c2nc(OC[C@@H]3CCCN3C)nc3cc(-c4c(C)cccc4C)c4ccoc4c23)CC1    632
C=CC(=O)N1CCN(c2nc(N3CC(N(C)C)C3)nc3cc(-c4cccc5ccccc45)c4c(c23)OCCC4)CC1    235
C=C(F)C(=O)N1CCN(c2nc(OC[C@@H]3CCCN3C)nc3cc(-c4ccc(C)cc4C(F)(F)F)c4ccoc4c23)C[C@@H]1CC#N    535
C=CC(=O)N1CCN(c2ncnc3cc(-c4c(O)cccc4F)c4c(c23)OC(C)(C)CC4)CC1    2120
C=CC(=O)N1C[C@H](C)N(c2nc(OC[C@@H]3CCCN3C)nc3cc(-c4c(Cl)c(C)cc5[nH]ncc45)c4ccoc4c23)C[C@H]1C    642
C=CC(=O)N1CCN(c2ncnc3cc(-c4cccc5cccc(Cl)c45)c4c(c23)OCCC4)C[C@@H]1CC#N    12

IC50 for `C=CC(=O)N1CCN(c2ncnc3cc(-c4c(Cl)c(C)cc5[nH]ncc45)c4c(c23)OCCC4)C[C@@H]1CC#N` ?
14.9

Recorded IC50 for `C=CC(=O)N1CCN(c2nc(N3CC(N(C)C)C3)nc3cc(-c4ccccc4C(F)(F)F)c4c(c23)OCCC4)CC1` , please?
568

Recorded IC50 of `C=CC(=O)N1CCN(c2ncnc3cc(-c4c(C)c(Cl)cc5[nH]ncc45)c4c(c23)OCCC4)C[C@@H]1CC#N` , please.
9.9

====

system.under.test: KRAS (aa 1-169) G12C, C51S, C80L, C118S (Homo sapiens (Human), UniProt P01116, C118S/C51S/C80L/G12C)
experiment.description: Biochemical functional assay: SOS1-mediated nucleotide exchange of GDP-loaded KRAS G12C, binding to GST-cRaf RBD, FRET readout
measurement.setup: 3 hrs pre-incubation with compound at 24° C., SOS1, GTPyS, inhibition of nucleotide exchange
readout.name: IC50 (nM)
I only need the number, in nM, no unit after it.

Look over these answered cases.
C=CC(=O)N1CCN(c2ncnc3cc(-c4c(C)ccc5[nH]ncc45)c4c(c23)OCCC4)C[C@@H]1CC#N    598
C=C(F)C(=O)N1CCN(c2nc(OC[C@@H]3CCCN3C)nc3cc(-c4c(Cl)c(C)cc5[nH]ncc45)c4c(c23)OCCC4)C[C@@H]1CC#N (single isomer, unassigned; atropisomer 2) [Compound B13]    325

Here is the next item to consider.
# IC50 lookup, item `C=C(F)C(=O)N1CCN(c2nc(OC[C@@H]3CCCN3C)nc3cc(-c4c(F)c(Cl)cc5[nH]ncc45)c4c(c23)OCCC4)C[C@@H]1CC#N`
43
